- System: FLT3-autoinhibited
- Assay conditions: concentration: 1 μM, replicates: in singlicate; n = 1;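 note: KINOMEscan kinase panel screen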
Catalogue of %Inh values
A number alone suffices; assume %.

See these solved cases before continuing.
Structure smiles string: COc1ccc(C)c(Nc2ccnc(Nc3ccc(-c4cnc[nH]4)cc3)n2)c1.Cl
Unit symbol: %
%Inh: 0
--
Structure smiles string: COc1cc(Nc2nccc(N3CCC(NS(=O)(=O)c4ccc(NC(C)=O)cc4)CC3)n2)cc(OC)c1OC
Unit symbol: %
%Inh: 73
--
Structure smiles string: Cc1cccc(Nc2nc(N[C@H]3CCCC[C@H]3N)ncc2C(N)=O)c1.Cl
Unit symbol: %
%Inh: 1

Now for a further compound.
Query: Endpoint output: %Inh of Cl.N#CCc1ccc(Nc2nccc(Nc3ccc(Oc4ccccc4)cc3)n2)cc1 . Value?
Result: 23

* * *

Catalogue of %Inh values
- System: HCK
- Assay conditions: concentration: 1 μM, replicates: in singlicate; n = 1

See these solved cases before continuing.
Compound: CN(c1ccc(NC(=O)N2CCN(CCCN3CCOCC3)CC2)cc1)c1ccnc(Nc2ccc(CS(C)(=O)=O)cc2)n1.Cl
Assay result: 12%
//
Compound: Fc1cc(Cl)ccc1Nc1ccnc2cc(-c3ccc(CN4CCSCC4)o3)ccc12
Assay result: 95.3%
//
Compound: Cc1ccc(C)c(NC(=O)Nc2ccc(C)c(-c3ccc(C(=O)Nc4ccncc4)cc3)c2)c1
Assay result: 92.4%
//
Compound: COc1ccc(C)c(Nc2ccnc(Nc3ccc(-c4cnc[nH]4)cc3)n2)c1.Cl
Assay result: 63%
//
Compound: Cc1ccc(Nc2ccnc(Nc3ccc(C)c(F)c3)n2)cc1O.Cl
Assay result: 29%

Query: Endpoint output: %Inh of COC(=O)Nc1nc2ccc(Oc3ccc(NC(=O)Nc4cc(C(F)(F)F)ccc4F)cc3)cc2[nH]1.Cl . Value?
Result: 51%

Query: Repeat with Cl.O=C(Nc1ccc(Oc2ccc3[nH]c(NC(=O)c4ccco4)nc3c2)cc1)Nc1cc(C(F)(F)F)ccc1F
Result: 58%

Query: Repeat with COc1cccc(CC(=O)N2CCc3cc(-c4cn(C)c5ncnc(N)c45)ccc32)c1
Result: 0%

Query: Repeat with COc1cc(Nc2nccc(N3CCC(NC(=O)Nc4ccc5c(c4)OCO5)C3)n2)cc(OC)c1OC (stereo not drawn)
Result: 0%

* * *

Catalogue of %Inh values
- System: MYO3B
- Assay conditions: concentration: 1 μM, replicates: in singlicate; n = 1
Please answer using a numeric value trailed by its unit.

See these solved cases before continuing.
Compound: Cc1nn2c(=O)cc(N3CCO[C@H](C)C3)nc2n1Cc1cccc(Cl)c1Cl [GSK2373693]
%Inh: 0%
--
Compound: Nc1ncc(-c2ccc3nccc(-c4ccncc4)c3c2)cc1S(=O)(=O)N1CCCCC1 [GSK1693850]
%Inh: 0%
--
Compound: COC(=O)Nc1nc2ccc(Oc3ccc(NC(=O)Nc4cc(C(F)(F)F)ccc4F)cc3)cc2[nH]1.Cl [GW654607]
%Inh: 0%

Query: Endpoint output: %Inh of Cn1cc(-c2ccc3c(c2)CCN3C(=O)Cc2cc(F)cc(F)c2F)c2c(N)ncnc21 [GSK2634140] . Value?
Result: 1%

Query: Repeat with Cc1cc(-c2c(-c3ccc(F)cc3)ncn2CCCN2CCOCC2)nc(N)n1 [SB-222517]
Result: 30%

Query: Repeat with Cl.Cl.NC(CNC(=O)c1cc(Br)c(-c2ccnc3[nH]ccc23)s1)c1ccccc1 (centres unmarked) [GSK1322949]
Result: 0%

Query: Repeat with O=C(Nc1n[nH]c2nc(-c3ccccc3)ccc12)C1CC1 [SB-708999]
Result: 0%

Query: Repeat with Cn1cc(-c2cnc(N)c3c(-c4ccc5c(c4)CCN5C(=O)Cc4ccccc4)csc23)cn1 [GSK2593074]
Result: 45%

All values here come from paper PMC5540273.
